Sourced from paper PMC6711467

assay: Vaginal PK study: IQB4012 gel
stated.conditions: female, pigtailed macaque, vaginal fluid, distal, other: vaginal, 1.5 ml
readout.name: concentration at 2 h (ng/mL)

- smiles.data: "C[C@H](Cn1cnc2c(N)ncnc21)OCP(=O)(O)O"
  observed.value: 37200

* * *

assay: Rectal PK study: IQB4012 gel
Format: in vivo, pigtailed macaques
stated.conditions: female, pigtailed, pigtailed macaque, rectal fluid, other: rectal, 4 ml

- smiles.data: "C[C@H](Cn1cnc2c(N)ncnc21)OCP(=O)(O)O"
  units: "ng/mL"
  concentration at 4 h: 864

* * *

assay: Vaginal PK study: IQB4012 gel
stated.conditions: female, pigtailed macaque, rectal fluids, other: vaginal, 1.5 ml gel

- smiles.data: "C[C@H](Cn1cnc2c(N)ncnc21)OCP(=O)(O)O"
  concentration at 2 h, ng/mL: 138

* * *

assay: Vaginal PK study: IQB4012 gel
stated.conditions: female, pigtailed macaque, vaginal tissue, proximal, other: vaginal, 1.5 ml gel
readout.name: concentration at 4 h (ng/g)

- smiles.data: "C[C@H](Cn1cnc2c(N)ncnc21)OCP(=O)(O)O"
  units: "ng/g"
  observed.value: 35100

* * *

assay: Rectal PK study: IQB4012 gel
Assay type: in vivo, pigtailed macaques
stated.conditions: female, pigtailed macaque, rectal fluid, other: rectal, 4 ml

- smiles.data: "C[C@H](Cn1cnc2c(N)ncnc21)OCP(=O)(O)O"
  units: "ng/mL"
  concentration at 2 h: 5060

* * *

assay: Vaginal PK study: IQB4012 gel
stated.conditions: female, pigtailed macaque, vaginal tissue, medial, other: vaginal, 0.5 ml

- molecule: "C[C@H](Cn1cnc2c(N)ncnc21)OCP(=O)(O)O [TFV, tenofovir]"
  concentration at 4 h: "8860 ng/g"

* * *

assay: Rectal PK study: IQB4012 gel
Format: in vivo, pigtailed macaques
stated.conditions: female, pigtailed macaque, rectal fluid, other: rectal, 1 ml
readout.name: concentration at 2 h (ng/mL)

- molecule: "C[C@H](Cn1cnc2c(N)ncnc21)OCP(=O)(O)O [TFV, tenofovir]"
  readout.name: "concentration at 2 h"
  observed.value: 3230

* * *

assay: Rectal PK study: IQB4012 gel
Assay type: in vivo, pigtailed macaques
stated.conditions: female, pigtailed macaque, rectal fluid, other: rectal, 1 ml
readout.name: concentration at 24 h

- smiles.data: "C[C@H](Cn1cnc2c(N)ncnc21)OCP(=O)(O)O"
  readout.name: "concentration at 24 h"
  observed.value: "132 ng/mL"

* * *

assay: Rectal PK study: IQB4012 gel
Format: in vivo, pigtailed macaques
stated.conditions: female, pigtailed macaque, rectal tissue, other: rectal, 4 ml

- smiles.data: "C[C@H](Cn1cnc2c(N)ncnc21)OCP(=O)(O)O"
  concentration at 24 h: "1410 ng/g"

* * *

assay: Vaginal PK study: IQB4012 gel
stated.conditions: female, pigtailed macaque, vaginal fluid, distal, other: vaginal, 0.5 ml

- molecule: "C[C@H](Cn1cnc2c(N)ncnc21)OCP(=O)(O)O [TFV, tenofovir]"
  concentration at 4 h (µg/mL): 132

* * *

assay: Vaginal PK study: IQB4012 gel
stated.conditions: female, pigtailed macaque, vaginal tissue, proximal, other: vaginal, 0.5 ml
readout.name: concentration at 24 h (ng/g)

- smiles.data: "C[C@H](Cn1cnc2c(N)ncnc21)OCP(=O)(O)O"
  units: "ng/g"
  observed.value: 16900
